Would you kindly list GI50 for each of these compounds?
system: RPMI-8226; experiment: NCI tumour cell line growth inhibition, 48 h
Activity calls are given as the source filed them. No stated cut-off is given here; in the data, active = GI50 up to about 1.1 µM and inactive = higher.

COC(=O)[C@@]1(C)C(=O)CC[C@@H]1C=O
> 100 µM (inactive)
Cc1cc(C)nc(NC(=S)Nc2cccc(Cl)c2)c1
> 100 µM (inactive)
Oc1nc(S)nc2nc3c4cccnc4c4ccccc4c3nc12
45.8 µM (inactive)
O=C1N=C(Nc2ccccc2Cl)SC1C(=O)Nc1ccc([N+](=O)[O-])cc1[N+](=O)[O-] (stereo not drawn)
> 100 µM (inactive)

Each compound below has a recorded value; state its GI50.
1. COc1cc(CNc2nc3c(NC(C)=O)cc(C(F)(F)F)cc3nc2-c2ccccc2)cc(OC)c1OC
2. CCOC(=O)CN(Cn1cncn1)Cn1cncn1
3. CC(=O)Nc1ccc(S(=O)(=O)Nc2cnc3ccccc3n2)cc1
4. CC(=O)C1=C(C)NC2C=CC=CN12 (stereo not drawn)
5. COP(=O)(OC)C(Cc1c[nH]c2ccccc12)NC(=O)OCc1ccccc1 (stereo not drawn)

Response given:
1. > 100 µM (inactive)
2. 55.2 µM (inactive)
3. > 100 µM (inactive)
4. > 100 µM (inactive)
5. > 100 µM (inactive)
